Biological target: Factor Xa (Homo sapiens, UniProt P00742)
Sequence (P00742 235-488 limits assumed): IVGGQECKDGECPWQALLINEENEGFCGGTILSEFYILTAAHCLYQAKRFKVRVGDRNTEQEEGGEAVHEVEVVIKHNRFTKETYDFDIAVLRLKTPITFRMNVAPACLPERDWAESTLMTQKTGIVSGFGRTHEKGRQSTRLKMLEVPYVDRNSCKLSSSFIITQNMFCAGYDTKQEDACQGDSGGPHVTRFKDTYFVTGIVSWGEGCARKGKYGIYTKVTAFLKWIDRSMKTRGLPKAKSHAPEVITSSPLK
Sequence (P00742 41-179 partner limits assumed): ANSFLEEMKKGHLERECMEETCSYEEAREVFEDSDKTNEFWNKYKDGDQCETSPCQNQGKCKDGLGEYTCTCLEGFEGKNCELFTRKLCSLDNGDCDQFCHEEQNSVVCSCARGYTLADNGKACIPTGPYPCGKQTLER
Class (required): determined from IC50; valid ranges are low end = under 4 nM, middle = from 4 nM up to 60 nM, high end = 60 nM and over

molecule="N=C(N)c1cc2cc(OC(=O)c3ccsc3)ccc2o1 [Example 6]" qualitative_label="high end"
molecule="N=C(N)c1ccc2cc(OC(=O)c3ccc(N=C(N)N)cc3)ccc2c1 [nafamostat, reference compound]" qualitative_label="high end"
molecule="N=C(N)c1nc2ccc(OC(=O)c3cccs3)cc2s1 [Example 14]" qualitative_label=middle
molecule="N=C(N)c1cc2ccc(OC(=O)c3cccs3)cc2s1 [Example 9]" qualitative_label="low end"
molecule="N=C(N)c1nc2ccc(OC(=O)c3ccoc3)cc2s1 [Example 15]" qualitative_label=middle
molecule="N=C(N)c1cc2ccc(OC(=O)c3ccoc3)cc2s1 [Example 10]" qualitative_label="low end"
